assay: in vitro; conditions: human, hela cells, % viability
value_kind: viability at 28.5 h, 10 µM
Put your answer as a value accompanied by its unit after it.

response.value for `Cc1occc1-c1nnc(NCc2cnn(C)c2C)o1` (field: viability at 28.5 h, 10 µM) = 92.3%

Measured viability at 28.5 h, 10 µM of `O=C1COc2ccccc2C(=O)N[C@@H]2CCOC[C@@H]2C/C=C/C[C@H]2[C@H](CCCN2CCO)N1` : 106%

Summary for this compound, O=C(NC(Cc1ccsc1)c1cccnc1)C1CCOC1 (centres unmarked) : viability at 28.5 h, 10 µM is 106%

// viability at 28.5 h, 10 µM lookup, compound = `Cc1ccc(Oc2ncccc2[N+](=O)[O-])c(Br)c1` , result: 94.8%

Reported viability at 28.5 h, 10 µM ( CCOC(=O)CN1CCC(Oc2cncc(OCc3ccc(Cl)c(Cl)c3)n2)C1 (centres unmarked) ) = 91.7%

----------
What viability at 28.5 h, 10 µM was measured for each of the following?
assay: in vitro; set-up: Viability of infected HeLa host cells, resazurin conversion, bulk resorufin fluorescence relative to DMSO; conditions: human, hela cells; bulk resorufin, mean of 2
Quick reminder: number only, in %, skip the unit.

Documented viability at 28.5 h, 10 µM of `N=C(N)Nc1nc(-c2ccccc2)c2cc(F)ccc2n1` : 105

The molecule listed as `O=C(O)c1cn(C2CC2)c2cc(N3CCN(C(=O)Cc4ccsc4)CC3)c(F)cc2c1=O` has a reported viability at 28.5 h, 10 µM of 90.7

// field: viability at 28.5 h, 10 µM; key: `O=C(N/N=C/c1ccc(Sc2cccc3cccnc23)o1)c1cccc(F)c1` ; value = 108

So, CN(C)c1ccc(Nc2nc(NCCO)c3ccccc3n2)cc1 [CBK268392C] ? Its viability at 28.5 h, 10 µM was 100

Consider `Cc1cc(C)c2c(N)c(C(=O)Nc3ccc(Br)cc3)sc2n1` . Its measured viability at 28.5 h, 10 µM is 106

viability at 28.5 h, 10 µM reading for CC(N)C(=O)NC1CCN(c2nc3c(cc2F)c(=O)c(C(=O)O)cn3C23CC(C2)C3)C1 (stereo not shown) : 87

The recorded viability at 28.5 h, 10 µM for entry `COC(=O)N1CCc2ccc(N3C[C@H](CNC(C)=O)OC3=O)cc2CC1` equals 90.5

Measured viability at 28.5 h, 10 µM, O=C(O)c1cn(C2CC2)c2cc(N3CCN(C(=O)C4CCCO4)CC3)c(F)cc2c1=O (stereo not shown) : 114

The molecule `O=C(c1ccc(-c2ccc(F)cc2)o1)N1C[C@H]2CC[C@](O)(c3ccc(F)cc3)[C@H]2C1` showed viability at 28.5 h, 10 µM equal to 91.6

// `Cc1noc(-c2ccc3c(c2O)OCCO3)c1-c1ccc(Cl)cc1` : viability at 28.5 h, 10 µM value = 99

Record summary for `CC(C)(C)c1cc(C(=O)Nc2ccncc2)n(Cc2ccc(Cl)cc2Cl)n1` : reported viability at 28.5 h, 10 µM = 97.3

Reported viability at 28.5 h, 10 µM ( `O=[N+]([O-])c1ccc(-n2cnc3ccccc32)c([N+](=O)[O-])c1` ) = 111

Recorded result, `O=C1Oc2nc3ccccc3cc2CN1C1CC1` , viability at 28.5 h, 10 µM: 98.4

Measured viability at 28.5 h, 10 µM, Cc1ccc(N2C(=O)c3[nH]nc(C)c3C2c2ccc(O)cc2)cc1 (stereo not shown) : 106

So, CC(=O)NC[C@H]1CN(c2ccc(C3=CC[S+]([O-])CC3)c(F)c2)C(=O)O1 (stereo partly shown) ? Its viability at 28.5 h, 10 µM was 86.3

The reported viability at 28.5 h, 10 µM of the molecule OC(COc1ccc(Br)cc1)CN1CCCN(c2nc3ccc(Cl)cc3s2)CC1 (stereo not shown) was 88

The value of viability at 28.5 h, 10 µM measured for the molecule `Nc1nc(F)nc2c1ncn2[C@H]1C[C@@H](O)[C@@H](CO)O1` turned out to be 72.6

Record summary for CCc1cc(Br)ccc1S(=O)(=O)NC(CC)COC (stereo not shown) : reported viability at 28.5 h, 10 µM = 96.5

Entry CC(Cc1nc(-c2nccn2C)cs1)n1cc(Cl)cn1 (stereo not shown) , viability at 28.5 h, 10 µM reported as 105

The molecule identified as `Cc1cc(C)c2nc(-c3ccccn3)cc(C(=O)Nc3ccc(S(=O)(=O)Nc4onc(C)c4C)cc3)c2c1` registered its viability at 28.5 h, 10 µM at 98.6

Record `Fc1cc(Br)c(CNCc2ncc[nH]2)c(N2CCCCC2)c1F` , field viability at 28.5 h, 10 µM: 89.7

Entry COc1ccc([C@@]23CC[C@@H](NC(=O)c4ccc(-c5ccccc5)cc4)CC2N(C)CC3)cc1OC (stereo partly shown) [CBK074973T] ; viability at 28.5 h, 10 µM = 87.1

# viability at 28.5 h, 10 µM of `Cc1noc(NS(=O)(=O)c2ccc(NC(=O)CCN3C(=O)c4ccccc4C3=O)cc2)c1C` = 91.3

Short answer for `CC(C)(CNS(=O)(=O)c1ccc(F)cc1)CNS(=O)(=O)c1ccc(F)cc1` : viability at 28.5 h, 10 µM was 116

Entry `CC(C)c1ccc(S(=O)(=O)Nc2cccc(SC(F)(F)F)c2)cc1` , viability at 28.5 h, 10 µM reported as 103

Query `O=C(NCCCn1ccnc1)c1cc(-c2ccc(Br)cc2)nc2ccccc12` yields viability at 28.5 h, 10 µM of 94.9

Reported viability at 28.5 h, 10 µM of Cc1ccccc1Nc1nc(N)nc(CN2CCCC(C(F)(F)F)C2)n1 (stereo not shown) : 97.7

Form field viability at 28.5 h, 10 µM, entry O=C(NS(=O)(=O)c1cccc(-c2nnco2)c1)C1CC1C1CCCCC1 (stereo not shown) : 94.7

The measured viability at 28.5 h, 10 µM associated with CCOc1ccc2nc(NC(=N)N)nc(C)c2c1 [CBK010384C] reads 94.8

Per the records, this molecule ( `CC(C)c1ccc(/C=C/C(=O)NCc2ccc(NS(C)(=O)=O)cc2)cc1` ) has viability at 28.5 h, 10 µM equal to 94.9

Looking up CN(C(=O)c1ccc(Cl)c(Cl)c1)[C@H]1CCC[C@H]1N1CCCC1 [CBK003411C] , I found its viability at 28.5 h, 10 µM recorded as 118

The molecule `O=C(Nc1ccccc1C(=O)Nc1nnc(C(F)(F)F)s1)c1ccccc1Cl` showed viability at 28.5 h, 10 µM equal to 84.6

// `Cc1ccc(C(=O)NCCCN2CCC3(CC2)OCCc2c3[nH]c3ccccc23)cc1` : viability at 28.5 h, 10 µM value = 78.1

Recorded result, `CCCCc1ccc(Nc2csc(N)n2)cc1` , viability at 28.5 h, 10 µM: 76.9

All values here come from paper PMC12040169.
